Assay: Fraction unbound in rat plasma
Type: ADME, cell-free
fraction unbound reference
readout-label: fraction unbound

In [3]: df
Out[3]:
                                   compound  value
0  NC(=O)[C@@H]1CC[C@H](c2ccc(Oc3ccc(F)cc3)cc2)N1   0.11
1  N#Cc1ccccc1COc1ccc([C@H]2CC[C@@H](C(N)=O)N2)cc1   0.12
2  NC(=O)[C@@H]1CCC[C@H](c2ccc(OCc3cccc(F)c3)cc2)N1 (stereo in doubt)   0.04
3  NC(=O)[C@@H]1CC[C@H](c2ccc(OCc3cccc(F)c3)cc2)N1  0.033

* * *

Molecular target: UniProtKB P33261
Sequence (P33261 whole entry): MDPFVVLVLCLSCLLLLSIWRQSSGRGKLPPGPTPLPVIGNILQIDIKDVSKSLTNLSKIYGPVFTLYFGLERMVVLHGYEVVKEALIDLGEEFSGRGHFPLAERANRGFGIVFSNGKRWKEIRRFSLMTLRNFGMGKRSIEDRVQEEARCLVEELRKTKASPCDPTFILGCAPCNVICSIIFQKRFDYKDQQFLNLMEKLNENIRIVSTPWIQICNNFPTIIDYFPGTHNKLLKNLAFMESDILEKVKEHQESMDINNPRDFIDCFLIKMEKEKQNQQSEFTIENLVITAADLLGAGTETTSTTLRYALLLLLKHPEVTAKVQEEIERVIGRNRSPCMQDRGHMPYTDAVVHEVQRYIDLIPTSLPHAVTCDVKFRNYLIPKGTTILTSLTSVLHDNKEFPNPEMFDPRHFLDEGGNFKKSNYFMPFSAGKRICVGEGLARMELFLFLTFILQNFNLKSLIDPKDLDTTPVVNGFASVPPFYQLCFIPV
readout-label: IC50 (µM)

>>> df
                                   compound   target_of_assay  readout_label  value
0  Cl.NC(=O)[C@@H]1CC[C@H](c2ccc(OCc3ccccc3F)cc2)N1 [RAXATRIGINE HYDROCHLORIDE]  UniProtKB P33261           IC50     79

* * *

The entries below are paired with their reported log(activity).
Target: Sodium channel protein type 3 subunit alpha (Homo sapiens)
Sequence (Q9NY46 whole entry, looked up): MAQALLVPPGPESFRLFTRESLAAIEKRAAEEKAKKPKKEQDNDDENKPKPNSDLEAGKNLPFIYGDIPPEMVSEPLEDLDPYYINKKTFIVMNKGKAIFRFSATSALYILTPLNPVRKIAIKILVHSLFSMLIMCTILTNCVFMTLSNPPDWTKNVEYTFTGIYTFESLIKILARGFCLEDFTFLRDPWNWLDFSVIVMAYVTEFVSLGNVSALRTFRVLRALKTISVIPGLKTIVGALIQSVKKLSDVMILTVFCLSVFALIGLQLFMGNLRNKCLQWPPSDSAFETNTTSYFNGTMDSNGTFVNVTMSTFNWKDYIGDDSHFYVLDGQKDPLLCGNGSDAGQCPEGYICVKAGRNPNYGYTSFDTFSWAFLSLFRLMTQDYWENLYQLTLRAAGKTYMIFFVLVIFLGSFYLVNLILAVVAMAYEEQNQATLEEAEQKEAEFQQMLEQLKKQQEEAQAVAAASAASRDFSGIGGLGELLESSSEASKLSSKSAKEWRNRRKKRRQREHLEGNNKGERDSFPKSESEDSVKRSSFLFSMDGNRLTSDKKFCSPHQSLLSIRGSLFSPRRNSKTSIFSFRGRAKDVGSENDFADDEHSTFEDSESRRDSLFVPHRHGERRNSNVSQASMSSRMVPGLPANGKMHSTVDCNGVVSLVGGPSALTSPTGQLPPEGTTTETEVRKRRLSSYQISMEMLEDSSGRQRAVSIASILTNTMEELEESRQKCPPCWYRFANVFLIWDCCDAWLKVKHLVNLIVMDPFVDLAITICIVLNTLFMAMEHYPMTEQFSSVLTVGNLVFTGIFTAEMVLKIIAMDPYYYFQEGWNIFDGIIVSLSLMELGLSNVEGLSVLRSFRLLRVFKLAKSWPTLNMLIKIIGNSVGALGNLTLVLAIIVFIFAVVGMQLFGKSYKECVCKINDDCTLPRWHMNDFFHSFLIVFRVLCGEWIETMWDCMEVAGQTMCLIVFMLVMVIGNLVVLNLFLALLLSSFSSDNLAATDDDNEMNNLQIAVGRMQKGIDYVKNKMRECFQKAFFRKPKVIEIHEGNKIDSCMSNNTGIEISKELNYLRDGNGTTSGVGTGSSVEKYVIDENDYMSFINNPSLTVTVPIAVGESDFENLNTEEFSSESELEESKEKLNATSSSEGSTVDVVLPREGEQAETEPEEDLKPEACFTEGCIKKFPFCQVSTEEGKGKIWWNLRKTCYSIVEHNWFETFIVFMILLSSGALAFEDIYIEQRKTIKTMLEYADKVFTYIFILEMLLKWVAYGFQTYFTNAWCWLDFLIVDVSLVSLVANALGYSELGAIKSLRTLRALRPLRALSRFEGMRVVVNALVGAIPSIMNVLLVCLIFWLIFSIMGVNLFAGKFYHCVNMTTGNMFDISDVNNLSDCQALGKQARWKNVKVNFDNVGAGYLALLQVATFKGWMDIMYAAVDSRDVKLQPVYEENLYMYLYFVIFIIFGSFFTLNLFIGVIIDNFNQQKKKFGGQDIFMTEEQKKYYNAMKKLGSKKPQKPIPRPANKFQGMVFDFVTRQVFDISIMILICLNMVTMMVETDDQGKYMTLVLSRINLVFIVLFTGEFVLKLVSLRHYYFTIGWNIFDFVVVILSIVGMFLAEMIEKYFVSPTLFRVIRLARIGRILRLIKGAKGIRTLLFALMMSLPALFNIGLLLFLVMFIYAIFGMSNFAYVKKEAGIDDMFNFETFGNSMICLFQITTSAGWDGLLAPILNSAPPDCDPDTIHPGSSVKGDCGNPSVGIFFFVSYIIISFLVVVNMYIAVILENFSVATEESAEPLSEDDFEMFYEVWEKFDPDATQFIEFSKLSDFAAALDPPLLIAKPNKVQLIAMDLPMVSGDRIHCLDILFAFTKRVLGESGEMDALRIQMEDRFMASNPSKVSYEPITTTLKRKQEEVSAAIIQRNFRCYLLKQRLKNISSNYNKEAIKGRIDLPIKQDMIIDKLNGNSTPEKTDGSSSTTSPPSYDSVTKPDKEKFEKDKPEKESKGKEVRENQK
Assay: Inhibition of Nav1.3 (unknown origin) expressed in HEK293 cells assessed as 15% inhibition of sodium current incubated for 3 to 3.5 mins by electrophysiology assay
Format: cell-based
readout-label: log(activity)

>>> df
                                   compound  readout_label  value
0  NC(=O)CNC1CCc2cc(OCc3ccccc3F)ccc21 (stereo unspecified)  log(activity)   -5.5
1  CN1[C@@H](c2ccc(OCc3ccccc3F)cc2)CC[C@H]1C(N)=O  log(activity)   -4.4
2  NC(=O)[C@@H]1CC[C@H](c2ccc(OCc3ccccc3F)cn2)N1  log(activity)   -4.8
3  NC(=O)[C@@H]1CC[C@H](c2ccc(Oc3ccc(F)cc3)cc2)N1  log(activity)   -5.3
4  NC(=O)[C@H]1CC[C@H](c2ccc(OCc3ccccc3F)cc2)N1  log(activity)   -5.4
5  NC(=O)C1Cc2cc(OCc3ccccc3F)ccc2CN1 (stereo unspecified)  log(activity)   -4.8

* * *

Test: Fraction unbound in rat brain
Assay type: ADME, tissue-based
If the reported fraction unbound equals or exceeds 0.01, assign Met. If not, assign Not met.

>>> print(df.to_string())
                           smiles_structure  qualitative_label
0  NC(=O)[C@@H]1CC[C@H](c2ccc(Oc3ccc(F)cc3)cc2)N1                Met
1  N#Cc1ccccc1COc1ccc([C@H]2CC[C@@H](C(N)=O)N2)cc1                Met
2  CNC(=O)[C@@H]1CC[C@H](c2ccc(OCc3ccccc3F)cc2)N1                Met
3  N#Cc1ccccc1Oc1ccc([C@H]2CC[C@@H](C(N)=O)N2)cc1                Met
4  NC(=O)[C@@H]1CC[C@H](c2ccc(OCc3ccccc3F)cc2F)N1            Not met
5  COc1cc([C@H]2CC[C@@H](C(N)=O)N2)ccc1OCc1ccccc1F                Met

* * *

Biological target: Amine oxidase [flavin-containing] A (Homo sapiens, UniProt P21397)
Sequence (P21397 whole entry): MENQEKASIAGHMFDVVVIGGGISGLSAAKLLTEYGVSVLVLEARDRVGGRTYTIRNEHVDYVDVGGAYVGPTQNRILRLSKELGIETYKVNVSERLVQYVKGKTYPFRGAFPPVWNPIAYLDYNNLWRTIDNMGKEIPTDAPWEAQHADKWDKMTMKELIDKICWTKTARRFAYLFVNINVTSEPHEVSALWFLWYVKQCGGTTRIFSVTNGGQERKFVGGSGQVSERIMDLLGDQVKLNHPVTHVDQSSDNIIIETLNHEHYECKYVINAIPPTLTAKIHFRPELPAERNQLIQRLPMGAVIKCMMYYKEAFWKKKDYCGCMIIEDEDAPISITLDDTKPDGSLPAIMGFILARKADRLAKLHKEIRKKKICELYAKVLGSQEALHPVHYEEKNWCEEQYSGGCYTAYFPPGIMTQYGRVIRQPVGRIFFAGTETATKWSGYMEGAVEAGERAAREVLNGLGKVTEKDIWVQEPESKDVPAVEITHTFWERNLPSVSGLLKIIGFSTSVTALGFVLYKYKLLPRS
pKi: −log10 of the molar value.
readout-label: pKi

In [3]: df
Out[3]:
                                   compound  readout_label   value
0  Cl.NC(=O)[C@@H]1CC[C@H](c2ccc(OCc3ccccc3F)cc2)N1 [RAXATRIGINE HYDROCHLORIDE]            pKi  < 5.00
